Molecular target: T1, Bfl-1, Q16548
T1 chain: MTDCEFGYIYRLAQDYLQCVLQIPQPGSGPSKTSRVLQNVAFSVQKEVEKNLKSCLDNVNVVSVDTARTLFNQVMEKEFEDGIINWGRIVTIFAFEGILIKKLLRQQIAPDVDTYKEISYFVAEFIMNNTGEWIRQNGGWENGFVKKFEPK
Experiment: peptide SPOT array, c-Myc-tagged receptor at 1 uM or 100 nM, anti-c-Myc-Cy3
QUANTITY NAME: SPOT signal as a fraction of Bim BH3's signal on the same receptor and array

ELLYGIWSNCLGLISDSFHMFFDSTA [SLC30A7]; 0.06
TRRSMVFARHLREVGDEFRSRHLNST [POFUT2]; 0.75

a. MSILTIASAVDEFVGDGIYNNTMGHV [TAP1]
b. EQILAKIVELLKYSGDQLERKLKKDK [BCL2L14]
c. LCQLSCVSKLMRDVLGSLLQSRGMVI [FBXO30]
d. EGMRTILVDWLVEVGEEYKLRAETLY [CCNA1]
e. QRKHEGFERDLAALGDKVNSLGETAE [SPTAN1]
Enquiry: Arrange these binders by their SPOT signal as a fraction of Bim BH3's signal on the same receptor and array, starting with the largest number. # respond with the labels, arranged in the requested order
Return: b, c, e, a, d
(b: 0.75, c: 0.38, e: 0.13, a: 0.03, d: 0.02)
